Where do the numbers come from? From paper PMC7872319.

- target: MinD ATPase (Escherichia coli)
- Sequence (P0AEZ3 1-270): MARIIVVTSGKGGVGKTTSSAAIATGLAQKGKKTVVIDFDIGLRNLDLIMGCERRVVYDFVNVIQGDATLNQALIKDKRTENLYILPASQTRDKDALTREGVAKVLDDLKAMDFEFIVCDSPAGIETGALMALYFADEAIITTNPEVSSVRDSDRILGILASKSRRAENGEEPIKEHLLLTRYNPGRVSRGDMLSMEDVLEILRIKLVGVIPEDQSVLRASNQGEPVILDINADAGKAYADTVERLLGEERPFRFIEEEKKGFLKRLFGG
- experiment: MinD ATPase assay: free biotin competing with MinE(13-31)-biotin for divalent streptavidin
- Type: biochemical
- Design: His (N); made in house; host or cells: E. coli BL21 (DE3)
value-kind: IC50 (nM)
Give bare numbers, in nM.

What does the data say about its IC50? Entry: O=C(O)CCCC[C@@H]1SC[C@@H]2NC(=O)N[C@@H]21 [free biotin, biotin]
8.7
